Provenance of the data: patent US8946216B2

Tested On: unphosphorylated Mouse ERK2 protein (inactive ERK2) (Mus musculus, UniProt P63085)
Sequence (P63085 whole entry): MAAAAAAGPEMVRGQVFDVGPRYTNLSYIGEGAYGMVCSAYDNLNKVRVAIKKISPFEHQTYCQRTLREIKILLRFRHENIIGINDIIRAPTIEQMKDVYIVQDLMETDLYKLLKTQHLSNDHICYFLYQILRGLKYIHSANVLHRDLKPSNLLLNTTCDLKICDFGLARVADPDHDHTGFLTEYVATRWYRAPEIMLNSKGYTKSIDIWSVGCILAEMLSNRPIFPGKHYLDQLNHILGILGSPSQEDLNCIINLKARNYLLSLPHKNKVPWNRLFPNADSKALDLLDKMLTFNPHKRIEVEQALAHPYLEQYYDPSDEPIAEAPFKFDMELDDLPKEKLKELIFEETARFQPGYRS
Test Protocol: Coupled ERK2 (cERK) assay, coupled MEK1/ERK2 IMAP
Condition Context: 30 min preincubation with inactive ERK2, then activation by human MEK1; 30 μM ATP; fluorescence polarization; read-out: cERK2 IC50
Value Kind: IC50 (nM)

Answered cases to consult:
Molecule: O=C(Nc1ccc2[nH]nc(-c3ccncc3)c2c1)C1CN(Cc2ccc(F)cc2F)CCO1 (stereo not shown)
IC50 / nM: 275
//
Molecule: O=C(Nc1ccc2[nH]nc(-c3ccncc3)c2c1)C1CN(Cc2ccccc2Br)CCS1 (stereo not shown)
IC50 / nM: 114
//
Molecule: COc1cccc(CN2CCOC(C(=O)Nc3ccc4[nH]nc(-c5ccncc5)c4c3)C2)c1 (stereo not shown)
IC50 / nM: 290
//
Molecule: O=C(Nc1ccc2[nH]nc(-c3ccncc3)c2c1)C1CCCN(Cc2ccccc2)C1 (stereo not shown)
IC50 / nM: 239
//
Molecule: O=C(Nc1ccc2[nH]nc(-c3ccncc3)c2c1)C1CN(Cc2ccccc2Cl)CCS1 (stereo not shown)
IC50 / nM: 42.4
//
Molecule: O=C(Nc1ccc2[nH]nc(-c3ccncc3)c2c1)C1CCCNC1 (stereo not shown)
IC50 / nM: 631

A = O=C(NCc1ccccc1)c1n[nH]c2ccc(NC(=O)C3CN(Cc4ccccc4F)CCS3)cc12 (stereo not shown)
B = O=C(Nc1ccc2[nH]nc(-c3ccncc3)c2c1)C1CNCCS1 (stereo not shown)
Q: Rank A against B by their IC50 values and give the higher one. Reply briefly: the label of your chosen item.
A: A

----------
Tested On: unphosphorylated Mouse ERK2 protein (inactive ERK2) (Mus musculus)
Test Protocol: Coupled ERK2 (cERK) assay, coupled MEK1/ERK2 IMAP
Condition Context: 30 min preincubation with inactive ERK2, then activation by human MEK1; 30 μM ATP; fluorescence polarization; read-out: cERK2 IC50
Value Kind: IC50 (nM)

Answered cases to consult:
Compound: CSC1(C(=O)Nc2ccc3[nH]nc(-c4ccncc4)c3c2)CCN(Cc2ccccc2F)C1 (stereo not shown) [Compound 63]
Tested On: unphosphorylated Mouse ERK2 protein (inactive ERK2) (Mus musculus)
IC50 [nM]: 121
--
Compound: O=C(Nc1ccc2[nH]nc(-c3ccncc3)c2c1)C1CN(Cc2cccnc2)CCS1 (stereo not shown) [Compound 8]
Tested On: unphosphorylated Mouse ERK2 protein (inactive ERK2) (Mus musculus)
IC50 [nM]: 1070

a = O=C(Nc1ccc2[nH]nc(-c3ccncc3)c2c1)C1CN(Cc2cc(C(F)(F)F)ccc2F)CCO1 (stereo not shown) [Compound 42]
b = COc1ccc(CN2CCOC(C(=O)Nc3ccc4[nH]nc(-c5ccncc5)c4c3)C2)c(F)c1 (stereo not shown) [Compound 38]
Q: Select one. Lower IC50: a or b Reply briefly: the label of your chosen item.
A: b
(b: 556 nM, a: 2660 nM)

----------
Tested On: unphosphorylated Mouse ERK2 protein (inactive ERK2) (Mus musculus, UniProt P63085)
Test Protocol: Coupled ERK2 (cERK) assay, coupled MEK1/ERK2 IMAP
Condition Context: 30 min preincubation with inactive ERK2, then activation by human MEK1; 30 μM ATP; fluorescence polarization; read-out: cERK2 IC50
pIC50: −log10 of the molar value.
Value Kind: pIC50

Answered cases to consult:
Compound: N#Cc1ccc(CN2CCOC(C(=O)Nc3ccc4[nH]nc(-c5ccncc5)c4c3)C2)cc1 (centres unmarked) [Compound 30]
Tested On: unphosphorylated Mouse ERK2 protein (inactive ERK2) (Mus musculus, UniProt P63085)
pIC50: 5.89

Compound: COc1ccc(CN2CCOC(C(=O)Nc3ccc4[nH]nc(-c5ccncc5)c4c3)C2)cc1 (centres unmarked) [Compound 33]
Tested On: unphosphorylated Mouse ERK2 protein (inactive ERK2) (Mus musculus, UniProt P63085)
pIC50: 6.65

Compound: O=C(Nc1ccc2[nH]nc(-c3ccncc3)c2c1)C1CN(Cc2ccccc2Cl)CCO1 (centres unmarked) [Compound 15]
Tested On: unphosphorylated Mouse ERK2 protein (inactive ERK2) (Mus musculus, UniProt P63085)
pIC50: 7.11

Compound: Cc1nc(CN2CCOC(C(=O)Nc3ccc4[nH]nc(-c5ccncc5)c4c3)C2)cs1 (centres unmarked) [Compound 18]
Tested On: unphosphorylated Mouse ERK2 protein (inactive ERK2) (Mus musculus, UniProt P63085)
pIC50: 5.93

Compound: O=C(Nc1ccc2[nH]nc(-c3ccncc3)c2c1)C1CCN(Cc2ccccc2)C1 (centres unmarked) [Compound 64]
Tested On: unphosphorylated Mouse ERK2 protein (inactive ERK2) (Mus musculus, UniProt P63085)
pIC50: 6.77

A = O=C(Nc1ccc2[nH]nc(-c3ccncc3)c2c1)C1CN(Cc2ccccc2F)CCO1 (centres unmarked) [Compound 4]
B = Cc1nc(CN2CCSC(C(=O)Nc3ccc4[nH]nc(-c5ccncc5)c4c3)C2)cs1 (centres unmarked) [Compound 11]
C = CN1CCCC(C(=O)Nc2ccc3[nH]nc(-c4ccncc4)c3c2)C1 (centres unmarked) [Compound 26]
D = COc1ccc(F)c(CN2CCOC(C(=O)Nc3ccc4[nH]nc(-c5ccncc5)c4c3)C2)c1 (centres unmarked) [Compound 46]
Q: Descending sort on pIC50 required. Submit the labels in the order that the ranking request calls for.
A: A, D, B, C

I = O=C(Nc1ccc2[nH]nc(-c3ccncc3)c2c1)C1CN(C(=O)OCc2ccccc2)CCN1 (centres unmarked) [Compound 58]
II = O=C(Nc1ccc2[nH]nc(-c3ccncc3)c2c1)[C@H]1CN(Cc2ccccc2)CCN1 [Compound 59]
Q: Rank I against II by their pIC50 values and give the higher one. Reply briefly: the label of your chosen item.
A: II
